The origin of these recorded values is PubChem BioAssay (NCI).

# Test system: NCI-H460 lung
Assign GI50 to each entry below.

Notebook: CC(=O)OCC1OC(n2ccc(=O)[nH]c2=O)C(OC(C)=O)C1OC(C)=O (stereo unspecified) , GI50 read as > 100000 nM

Notebook: `NC(C(=O)[O-])C(=O)[O-].NC1CCCCC1N.[Pt+4]` , GI50 read as 2290 nM

Notebook: COc1ccc2c(c1)OC(N(C(C)=O)C(C)=O)=C(C#N)C2c1ccc(F)cc1 (stereo unspecified) , GI50 read as 1880 nM

Notebook: `Clc1nc(Cl)c2ncn(Cc3ccc(COc4cccc(OCc5ccc(Cn6cnc7c(Cl)nc(Cl)nc76)cc5)c4)cc3)c2n1` , GI50 read as > 100000 nM

Notebook: `Fc1ccc2[nH]c3c(NCCCN4CCOCC4)ncnc3c2c1` , GI50 read as 38500 nM

Notebook: `CN(C)c1ccc2cc(-c3ccccc3F)c(N)nc2c1` , GI50 read as 2020 nM

---

# Test system: HCT-15 colon
# procedure_text: NCI tumour cell line growth inhibition, 48 h
Assign TGI to each entry below.
Please state the figure in µM; there is no need to write the unit.

Notebook: CSC1=C(c2ccc(Cl)cc2)SC(N2CCCCC2)N1c1ccc([N+](=O)[O-])cc1 (configuration not stated) , TGI read as 89

Notebook: `COc1ccc(-c2cn(-c3ccccc3)c(-c3ccccc3)n2)cc1OC` , TGI read as 11.2

Notebook: `CC(C)(C)c1ccc(S(=O)(=O)N[C@H]2CC[C@H]3[C@@H]4CCc5cc(OS(=O)(=O)O)ccc5[C@H]4CC[C@]23C)cc1` , TGI read as 3.59

---

# Tested on: DU-145 prostate
# procedure_text: NCI tumour cell line growth inhibition, 48 h
Assign log10(TGI) to each entry below.
Scale: log10; quantity: TGI; unit before log: µM

Notebook: `CSc1ccc(/C=C2\N=C(c3ccccc3)N(c3nc4ccc(Sc5ccccc5)cc4[nH]3)C2=O)cc1` , log10(TGI) read as 1.85

Notebook: `Cc1cc2c3ccccc3n(C)c2c2c1C(=O)C=CC2=O` , log10(TGI) read as 1.65

Notebook: `Clc1nc(Cl)c2c(ncn2C/C=C\Cn2cnc3c(Cl)nc(Cl)nc32)n1` , log10(TGI) read as 0.46

Notebook: `CO/N=C(\C)c1ccc(Nc2cc(-c3ccccc3)nc3c(O)cccc23)cc1` , log10(TGI) read as 1.51

Notebook: `Clc1nc(Cl)c2ncn(Cc3ccc(COc4cccc(OCc5ccc(Cn6cnc7c(Cl)nc(Cl)nc76)cc5)c4)cc3)c2n1` , log10(TGI) read as 1.68

Notebook: `CCCCCCCCCCCCCC(=O)CBr` , log10(TGI) read as 1.53

Notebook: `Nc1nc(Cl)cc(Nc2cc(Cl)cc(Cl)c2)n1` , log10(TGI) read as 1.67

Notebook: `COc1cc(Cn2c3c(c4c(C(=O)NCCN(C)C)c(O)ccc42)C(=O)c2ccccc2C3=O)cc(OC)c1` , log10(TGI) read as 0.51

Notebook: `COc1ccc(-c2cn(-c3ccccc3)c(-c3ccccc3)n2)cc1OC` , log10(TGI) read as 0.90

Notebook: `Cc1cn(Cc2ccccc2CCl)c(=O)[nH]c1=O` , log10(TGI) read as 1.50

Notebook: `Cc1ccc2c(n1)C(=O)c1ccccc1C2=O` , log10(TGI) read as 1.56

Notebook: `COc1cc(Nc2nc(N[C@H]3CCCC[C@@H]3N)nc3cc[nH]c(=O)c23)cc(OC)c1` , log10(TGI) read as 1.18

Notebook: `Oc1ccc(CCCCCCc2ccc(O)cc2)cc1` , log10(TGI) read as 1.18

Notebook: `CC[n+]1c(/C=C/c2ccc(N(CCCl)CCCl)cc2)ccc2cc(NC(=O)/C=C/c3ccccc3)ccc21` , log10(TGI) read as 0.21

Notebook: CCC1C(c2cc(OC)c(OC)c(OC)c2)c2cc3c(cc2OC1N1CCOCC1)OCO3 (stereo unspecified) , log10(TGI) read as 1.46

Notebook: C=C1CC[C@@H]2[C@](C)(COC(C)=O)[C@H](OC(C)=O)CC[C@@]2(C)[C@@H]1CC(Nc1ccc(S(=O)(=O)Nc2nccc(C)n2)cc1)C1=CCOC1=O (stereo partly specified) , log10(TGI) read as 1.07

Notebook: `CC[C@H](CC#N)OC(=O)N[C@@H](C)c1cccc(NC(=O)Nc2ccc(-c3cnco3)c(OC)c2)c1` , log10(TGI) read as 1.59

Notebook: `COCCOCCOC1=C(Cl)C(=O)c2c(O)ccc(O)c2C1=O` , log10(TGI) read as 1.35
